Species: Oryctolagus cuniculus
Assay: Antagonistic activity through inhibition of A II induced contractions on rabbit aortic strips
Format: functional
Details: Aorta
pIC50: −log10 of the molar value.
The entries below are paired with their reported pIC50.

>  <compound>
CCCCC1=NC2(CCCCCCCCCC2)C(=O)N1Cc1ccc(-c2ccccc2C(=O)O)cc1

>  <lt.gt.eq>
=

>  <pIC50>
6.46

$$$$
>  <compound>
CCCCC1=NC2(C(=O)N1Cc1ccc(-c3ccccc3C(=O)O)cc1)C1CC3CC(C1)CC2C3 (stereo not given)

>  <lt.gt.eq>
=

>  <pIC50>
7.64

$$$$
>  <compound>
CCCCC1=NC2(CCCC2)C(=O)N1Cc1ccc(-c2ccccc2-c2nnn[nH]2)cc1

>  <lt.gt.eq>
=

>  <pIC50>
8.40

$$$$
>  <compound>
O=C(O)c1ccccc1-c1ccc(CN2C(=O)C3(CCCC3)N=C2Cc2ccccc2)cc1

>  <lt.gt.eq>
=

>  <pIC50>
5.41

$$$$
>  <compound>
CCCCC1=NC2(CCOCC2)C(=O)N1Cc1ccc(-c2ccccc2C(=O)O)cc1

>  <lt.gt.eq>
=

>  <pIC50>
6.70

$$$$
>  <compound>
CCCCC1=NC2(CCC2)C(=O)N1Cc1ccc(-c2ccccc2C(=O)O)cc1

>  <lt.gt.eq>
=

>  <pIC50>
7.38

$$$$
>  <compound>
CCCCC1=NC2(CCN(C(C)=O)CC2)C(=O)N1Cc1ccc(-c2ccccc2C(=O)O)cc1

>  <lt.gt.eq>
=

>  <pIC50>
6.89

$$$$
>  <compound>
CCCCC1=NC2(CCCC2)C(=O)N1Cc1ccc(-c2ccccc2C(=O)OC)cc1

>  <lt.gt.eq>
<

>  <pIC50>
5.00

$$$$
>  <compound>
CCCCc1nc(Cl)c(CO)n1Cc1ccc(-c2ccccc2-c2nnn[nH]2)cc1

>  <lt.gt.eq>
=

>  <pIC50>
7.60

$$$$
>  <compound>
CNCC(=O)N[C@@H](CCCNC(=N)N)C(=O)N[C@H](C(=O)N[C@@H](Cc1ccc(O)cc1)C(=O)N[C@H](C(=O)N[C@@H](Cc1cnc[nH]1)C(=O)N1CCC[C@H]1C(=O)N[C@@H](C)C(=O)O)C(C)C)C(C)C

>  <lt.gt.eq>
=

>  <pIC50>
8.64

$$$$
>  <compound>
CCCCC1=NC2(Cc3ccccc3C2)C(=O)N1Cc1ccc(-c2ccccc2C(=O)O)cc1

>  <lt.gt.eq>
=

>  <pIC50>
6.62

$$$$
>  <compound>
CCCCC1=NC(c2ccccc2)(c2ccccc2)C(=O)N1Cc1ccc(-c2ccccc2C(=O)O)cc1

>  <lt.gt.eq>
=

>  <pIC50>
5.27

$$$$
>  <compound>
CCCCC1=NC2(CCCC2)C(=S)N1Cc1ccc(-c2ccccc2C(=O)O)cc1

>  <lt.gt.eq>
=

>  <pIC50>
7.28

$$$$
>  <compound>
CCCCC1=NC2(CCCC2)C(=O)N1Cc1ccc(-c2ccccc2C#N)cc1

>  <lt.gt.eq>
<

>  <pIC50>
5.00

$$$$
>  <compound>
CCCCC1=NC2(CCN(Cc3ccccc3)CC2)C(=O)N1Cc1ccc(-c2ccccc2C(=O)O)cc1

>  <lt.gt.eq>
=

>  <pIC50>
6.38

$$$$
